Target protein (sequence): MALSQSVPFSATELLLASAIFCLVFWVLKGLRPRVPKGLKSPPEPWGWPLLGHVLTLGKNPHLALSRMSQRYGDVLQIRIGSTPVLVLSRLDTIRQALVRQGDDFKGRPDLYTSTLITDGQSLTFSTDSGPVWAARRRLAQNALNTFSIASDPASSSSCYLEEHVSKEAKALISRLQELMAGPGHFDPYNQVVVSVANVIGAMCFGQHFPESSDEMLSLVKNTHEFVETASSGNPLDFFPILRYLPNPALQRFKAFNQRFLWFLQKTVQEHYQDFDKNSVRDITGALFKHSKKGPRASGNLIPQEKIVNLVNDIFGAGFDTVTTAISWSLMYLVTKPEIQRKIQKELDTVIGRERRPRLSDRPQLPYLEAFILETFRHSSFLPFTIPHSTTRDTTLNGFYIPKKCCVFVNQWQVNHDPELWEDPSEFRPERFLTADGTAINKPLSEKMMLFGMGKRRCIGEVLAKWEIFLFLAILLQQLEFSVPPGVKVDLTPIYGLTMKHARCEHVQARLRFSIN
pIC50: −log10 of the molar value.
PARAMETER_MEASURED: pIC50

Input: Request the reported pIC50 associated with O=C(O)/C=C/c1ccc(NC(=O)C2(NC(=O)c3ccc4c(c3)nc(-c3ccccn3)n4C3CCCCC3)CCCC2)cc1
Output: < 4.52
